Species on record: Rattus norvegicus
Assay Comment: Antidiabetic activity in albino rat diabetic model assessed as plasma glucose level measured after 1 hr (reference value: 274 +/- 4.73 mg/dl)
Assay type: functional
Observable: Activity (mg/dL)
Just the number please, in mg/dL, no unit attached.

Exam item: # lookup: Activity of O=C1NC2(CC3CCC2C3)C(=O)N1S(=O)(=O)c1ccc([N+](=O)[O-])cc1 (stereo not drawn)
Marked response: 399

Exam item: Please do the same for Cc1ccc(S(=O)(=O)N2C(=O)NC3(CC4CCC3C4)C2=O)cc1 (stereo not drawn) as well.
Marked response: 506

Exam item: // same read-out, input: O=C1c2ccccc2C(=O)c2cc(S(=O)(=O)N3C(=O)NC4(CC5CCC4C5)C3=O)ccc21 (stereo not drawn)
Marked response: 460

---

Species: Rattus norvegicus
Assay Comment: Antidiabetic activity in albino rat diabetic model assessed as plasma glucose level measured after 1 hr (reference value: 274 +/- 4.73 mg/dl)
Type: functional
// assign Fulfilled if Activity falls strictly below 400 mg/dL, else Not fulfilled (ties count as Not fulfilled)

[[record]]
molecule = "COc1ccc(S(=O)(=O)N2C(=O)NC3(CC4CCC3C4)C2=O)cc1 (stereo not given)"
answer_label = "Not fulfilled"


Exam item: Is Activity of O=C1NC2(CC3CCC2C3)C(=O)N1S(=O)(=O)c1ccc(Br)cc1 (stereo not given) strictly below 400 mg/dL?
Marked response: Fulfilled

Exam item: What about COc1ccc(Cl)cc1C(=O)NCCc1ccc(S(=O)(=O)NC(=O)NC2CCCCC2)cc1 [GLYBURIDE] ?
Marked response: Fulfilled

Exam item: # repeat for O=C1NC2(CC3CCC2C3)C(=O)N1S(=O)(=O)c1ccc2ccccc2c1 (stereo not given)
Marked response: Fulfilled

Values compiled from ChEMBL document CHEMBL2311260.
